- System: FMC63
- Sequence (as listed by the source): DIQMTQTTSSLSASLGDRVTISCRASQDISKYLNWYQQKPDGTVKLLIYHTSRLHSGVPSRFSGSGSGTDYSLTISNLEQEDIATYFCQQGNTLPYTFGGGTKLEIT
- Sequence (as listed by the source): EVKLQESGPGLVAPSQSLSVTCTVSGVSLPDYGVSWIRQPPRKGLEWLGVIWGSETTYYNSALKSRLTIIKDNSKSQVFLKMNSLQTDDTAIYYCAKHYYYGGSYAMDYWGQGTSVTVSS
- method-description: CD19 variant binding to anti-CD19 antibody FMC63 (score)
- measurement-context: Table 1B, CD19 triple mutants
measurement-label: FMC63 Binding Score
Lab note: record just the number, no unit beside it.

Request: What value of FMC63 Binding Score has been recorded for this entry: W62T/F64M/F66S: CD19 variant (protein) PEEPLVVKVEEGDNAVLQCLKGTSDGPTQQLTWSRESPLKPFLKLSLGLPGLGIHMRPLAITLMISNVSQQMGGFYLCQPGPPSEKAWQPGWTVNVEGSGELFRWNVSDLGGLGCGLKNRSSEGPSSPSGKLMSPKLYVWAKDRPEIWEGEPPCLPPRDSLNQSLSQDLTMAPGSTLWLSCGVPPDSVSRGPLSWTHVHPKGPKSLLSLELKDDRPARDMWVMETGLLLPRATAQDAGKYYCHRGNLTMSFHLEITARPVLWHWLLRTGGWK
Response: 15.7

Request: Data request, read-out FMC63 Binding Score, for W62G/F64V/F66R: CD19 variant (protein) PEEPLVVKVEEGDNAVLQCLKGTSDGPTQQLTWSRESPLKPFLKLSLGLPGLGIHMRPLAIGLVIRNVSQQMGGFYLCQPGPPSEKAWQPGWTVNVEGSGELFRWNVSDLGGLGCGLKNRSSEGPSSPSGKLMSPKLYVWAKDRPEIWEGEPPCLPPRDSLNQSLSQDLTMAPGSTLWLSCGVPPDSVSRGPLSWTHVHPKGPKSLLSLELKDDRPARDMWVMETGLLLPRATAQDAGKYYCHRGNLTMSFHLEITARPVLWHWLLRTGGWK
Response: 14.1

Request: Suppose we examine the molecule W62T/F64V/F66R: CD19 variant (protein) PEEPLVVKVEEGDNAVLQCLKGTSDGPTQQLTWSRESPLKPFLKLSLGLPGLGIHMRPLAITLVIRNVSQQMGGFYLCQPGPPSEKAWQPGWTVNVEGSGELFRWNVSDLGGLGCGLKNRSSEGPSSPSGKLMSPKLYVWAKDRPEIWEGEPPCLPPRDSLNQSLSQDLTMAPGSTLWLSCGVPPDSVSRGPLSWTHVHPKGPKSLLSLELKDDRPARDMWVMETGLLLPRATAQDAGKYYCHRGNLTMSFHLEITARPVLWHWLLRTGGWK ; what FMC63 Binding Score value has been reported?
Response: 12.2

Request: Need FMC63 Binding Score of W62S/F64R/F66R: CD19 variant (protein) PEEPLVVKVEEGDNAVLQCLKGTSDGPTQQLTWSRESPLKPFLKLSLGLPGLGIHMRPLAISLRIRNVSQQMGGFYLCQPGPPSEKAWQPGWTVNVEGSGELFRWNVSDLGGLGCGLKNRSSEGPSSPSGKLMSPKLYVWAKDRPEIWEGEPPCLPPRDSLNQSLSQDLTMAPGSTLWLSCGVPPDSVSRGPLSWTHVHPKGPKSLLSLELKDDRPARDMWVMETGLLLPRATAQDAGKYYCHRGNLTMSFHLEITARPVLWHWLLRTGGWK , thanks.
Response: 13.7

Request: Suppose we examine the molecule E224G/G226S/L228V: CD19 variant (protein) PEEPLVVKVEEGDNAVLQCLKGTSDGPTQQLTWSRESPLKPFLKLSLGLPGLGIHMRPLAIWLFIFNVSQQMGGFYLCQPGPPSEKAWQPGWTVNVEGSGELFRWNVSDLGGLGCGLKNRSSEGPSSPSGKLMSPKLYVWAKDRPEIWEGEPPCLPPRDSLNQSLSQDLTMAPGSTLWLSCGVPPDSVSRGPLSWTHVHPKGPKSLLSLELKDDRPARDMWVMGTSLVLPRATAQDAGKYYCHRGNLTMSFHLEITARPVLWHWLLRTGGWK ; what FMC63 Binding Score value has been reported?
Response: 11.2

Request: Could you share which FMC63 Binding Score value was measured for E224G/G226G/L228I: CD19 variant (protein) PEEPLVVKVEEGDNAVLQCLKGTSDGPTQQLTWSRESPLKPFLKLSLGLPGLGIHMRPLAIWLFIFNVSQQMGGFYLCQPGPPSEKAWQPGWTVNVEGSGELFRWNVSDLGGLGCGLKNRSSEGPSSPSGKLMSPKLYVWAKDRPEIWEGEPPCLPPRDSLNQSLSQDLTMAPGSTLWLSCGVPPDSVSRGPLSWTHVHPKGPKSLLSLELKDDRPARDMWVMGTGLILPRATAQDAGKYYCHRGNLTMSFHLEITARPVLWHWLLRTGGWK ?
Response: 11.2

Request: Would you kindly share the measured FMC63 Binding Score for E224G/G226R/L228I: CD19 variant (protein) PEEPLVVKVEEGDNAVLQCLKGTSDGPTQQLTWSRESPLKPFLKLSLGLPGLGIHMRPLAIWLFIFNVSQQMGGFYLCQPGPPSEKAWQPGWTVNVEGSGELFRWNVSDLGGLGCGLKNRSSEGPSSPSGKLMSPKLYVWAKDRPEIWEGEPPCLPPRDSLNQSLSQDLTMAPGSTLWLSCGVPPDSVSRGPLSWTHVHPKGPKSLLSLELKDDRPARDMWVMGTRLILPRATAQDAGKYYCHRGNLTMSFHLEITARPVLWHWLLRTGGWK ?
Response: 12.

Request: Given the molecule W62A/F64R/F66L: CD19 variant (protein) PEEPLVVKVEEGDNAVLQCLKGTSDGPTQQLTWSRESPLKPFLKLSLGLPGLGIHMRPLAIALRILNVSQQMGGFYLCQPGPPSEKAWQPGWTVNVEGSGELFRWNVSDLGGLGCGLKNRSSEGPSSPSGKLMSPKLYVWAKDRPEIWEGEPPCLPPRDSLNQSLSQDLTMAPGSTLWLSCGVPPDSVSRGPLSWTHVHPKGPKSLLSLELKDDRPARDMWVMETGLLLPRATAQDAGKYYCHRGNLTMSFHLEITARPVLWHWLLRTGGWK , what is its reported FMC63 Binding Score?
Response: 13.1

Request: What value of FMC63 Binding Score has been recorded for this entry: W62E/F64V/F66V: CD19 variant (protein) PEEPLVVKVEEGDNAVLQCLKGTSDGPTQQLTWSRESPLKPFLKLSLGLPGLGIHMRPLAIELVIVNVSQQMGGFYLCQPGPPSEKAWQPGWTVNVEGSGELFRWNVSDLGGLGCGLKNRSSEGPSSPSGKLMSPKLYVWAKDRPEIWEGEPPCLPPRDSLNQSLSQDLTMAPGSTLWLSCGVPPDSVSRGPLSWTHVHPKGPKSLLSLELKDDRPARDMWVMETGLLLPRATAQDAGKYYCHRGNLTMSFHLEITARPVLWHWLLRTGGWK
Response: 13.4
